target: HIV-1 Env of isolate MGRM-G-025 (subtype G), on pseudovirus (HIV-1); assay: cell-based or functional assay
# IC50 (µg/mL), neutralization of pseudovirus annotations
Kindly provide the numeric value in µg/mL only, without the unit symbol.

Worked cases, answers included:
binder | reportedMeasurement
PGT-127 (antibody, V domains shown) VH: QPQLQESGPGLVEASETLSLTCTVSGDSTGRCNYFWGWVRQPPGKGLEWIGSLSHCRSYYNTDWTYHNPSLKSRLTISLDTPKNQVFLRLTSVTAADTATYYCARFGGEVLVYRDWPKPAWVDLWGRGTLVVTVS VL: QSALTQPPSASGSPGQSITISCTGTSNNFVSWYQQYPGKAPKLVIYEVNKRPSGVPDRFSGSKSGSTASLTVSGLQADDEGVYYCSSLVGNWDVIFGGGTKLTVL | 19.3
PGT-126 (antibody, V domains shown) VH: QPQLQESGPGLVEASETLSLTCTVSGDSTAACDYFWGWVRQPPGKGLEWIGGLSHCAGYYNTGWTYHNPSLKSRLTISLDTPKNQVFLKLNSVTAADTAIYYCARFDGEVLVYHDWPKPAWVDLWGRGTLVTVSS VL: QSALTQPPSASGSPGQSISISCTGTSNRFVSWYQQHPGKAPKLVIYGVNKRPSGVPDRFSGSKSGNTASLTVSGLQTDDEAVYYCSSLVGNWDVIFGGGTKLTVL | 17.1
PGT-135 (antibody, V domains shown) VH: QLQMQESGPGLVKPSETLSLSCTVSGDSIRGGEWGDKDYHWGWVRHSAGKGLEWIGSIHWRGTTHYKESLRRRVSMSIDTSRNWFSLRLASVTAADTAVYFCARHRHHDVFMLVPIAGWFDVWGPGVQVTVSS VL: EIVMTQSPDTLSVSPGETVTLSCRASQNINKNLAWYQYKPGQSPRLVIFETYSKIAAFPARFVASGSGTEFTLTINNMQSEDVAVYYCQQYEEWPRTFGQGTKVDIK | 0.592
PGT-130 (antibody, V domains shown) VH: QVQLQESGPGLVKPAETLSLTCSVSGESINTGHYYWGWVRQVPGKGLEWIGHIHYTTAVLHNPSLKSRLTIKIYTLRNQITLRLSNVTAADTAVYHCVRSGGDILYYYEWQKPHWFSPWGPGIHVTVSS VL: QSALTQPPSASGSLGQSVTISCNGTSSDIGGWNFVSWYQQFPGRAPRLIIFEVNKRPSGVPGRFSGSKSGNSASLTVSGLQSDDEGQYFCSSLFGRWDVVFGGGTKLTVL | 8.45
PGT-128 (antibody, V domains shown) VH: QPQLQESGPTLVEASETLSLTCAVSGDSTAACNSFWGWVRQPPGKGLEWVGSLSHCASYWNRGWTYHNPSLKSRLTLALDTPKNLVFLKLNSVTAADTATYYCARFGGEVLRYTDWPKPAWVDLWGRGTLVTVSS VL: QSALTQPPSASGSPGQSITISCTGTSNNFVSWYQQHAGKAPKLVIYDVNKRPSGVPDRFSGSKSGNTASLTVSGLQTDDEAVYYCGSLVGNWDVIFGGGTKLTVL | 0.017

Input line: Look at this binder and give its reported IC50 (µg/mL), neutralization of pseudovirus. PGT-131 (antibody, V domains shown) VH: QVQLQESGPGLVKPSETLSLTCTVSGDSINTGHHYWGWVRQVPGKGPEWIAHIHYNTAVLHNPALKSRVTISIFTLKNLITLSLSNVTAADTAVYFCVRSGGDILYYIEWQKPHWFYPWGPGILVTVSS VL: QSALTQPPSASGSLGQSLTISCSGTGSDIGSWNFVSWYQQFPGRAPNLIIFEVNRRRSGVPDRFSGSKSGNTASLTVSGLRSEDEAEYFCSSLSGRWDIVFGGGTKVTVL
Output line: 7.75

Input line: Name the recorded IC50 (µg/mL), neutralization of pseudovirus for PGT-123 (antibody, V domains shown) VH: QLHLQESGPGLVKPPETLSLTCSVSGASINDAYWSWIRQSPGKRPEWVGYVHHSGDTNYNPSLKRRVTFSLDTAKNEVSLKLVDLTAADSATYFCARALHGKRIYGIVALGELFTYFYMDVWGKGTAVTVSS VL: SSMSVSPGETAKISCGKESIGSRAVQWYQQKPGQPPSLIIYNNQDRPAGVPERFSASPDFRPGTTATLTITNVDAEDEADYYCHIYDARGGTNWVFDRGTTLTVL .
Output line: 0.046
